studySystem: QuantiLum Recombinant Luciferase (Photinus pyralis)
Sequence (P08659 whole entry): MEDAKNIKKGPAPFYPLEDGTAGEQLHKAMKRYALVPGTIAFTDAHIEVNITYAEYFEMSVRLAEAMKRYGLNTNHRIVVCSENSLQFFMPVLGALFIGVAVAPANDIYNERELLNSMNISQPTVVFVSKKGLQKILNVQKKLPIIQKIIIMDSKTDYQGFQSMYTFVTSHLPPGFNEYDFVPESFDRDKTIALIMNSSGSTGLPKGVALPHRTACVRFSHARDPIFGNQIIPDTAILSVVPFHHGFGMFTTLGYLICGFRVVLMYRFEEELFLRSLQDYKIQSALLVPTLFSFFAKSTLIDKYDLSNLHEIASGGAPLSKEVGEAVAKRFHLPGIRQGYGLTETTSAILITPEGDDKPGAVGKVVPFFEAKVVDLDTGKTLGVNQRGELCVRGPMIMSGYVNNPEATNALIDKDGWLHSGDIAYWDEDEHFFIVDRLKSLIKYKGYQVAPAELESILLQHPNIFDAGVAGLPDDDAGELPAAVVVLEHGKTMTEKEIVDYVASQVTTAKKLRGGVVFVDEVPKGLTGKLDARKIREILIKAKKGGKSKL
assayProcedure: Bioluminescence quantification of compound luciferase inhibition
pIC50: −log10 of the molar value.
measuredAttribute: pIC50

### Prompt Item "COc1cccc(NC(=O)[C@H](C(C)C)n2c(=O)[nH]c3ccccc3c2=O)c1" : provide pIC50
### Response < 4.30

### Prompt Identify measured pIC50 associated with "C=CCc1c(C)nc2ccccc2c1O"
### Response < 4.70

### Prompt Given "CN1CCN(c2nc(Nc3ccc(O)cc3)nc3ccccc23)CC1" , respond with its pIC50.
### Response 4.66

### Prompt # return recorded pIC50 for entry "COc1ccc(-c2cc3c(SCC(=O)Nc4cc(C(F)(F)F)ccc4Cl)nccn3n2)cc1"
### Response < 4.30

### Prompt Tell us which pIC50 value is on record for "COc1ccccc1CNC(=O)CCn1c(=O)[nH]c2ccsc2c1=O"
### Response < 4.70
